target: Glutamate NMDA receptor; test: Displacement of [3H]TCP from NMDA receptor of rat brain membranes
Collected Ki values appear next to each entry.
Just the number please, in nM, no unit attached.

Past entries and their recorded results:
Fc1ccc2c(c1)C1C3CCCC3C2N2CCCCC12 (configuration not stated) :: 20
c1ccc2c(c1)C1C3CCCCC3C2N2CCCCC12 (configuration not stated) :: 134
Oc1ccc2c(c1)C1C3CCCC3C2N2CCCCC12 (configuration not stated) :: 2.3
c1ccc2c(c1)C1C3OCCC3C2N2CCCCC12 (configuration not stated) :: 600

The measured Ki that Oc1ccc2c(c1)C1C3CCCC3C2C2CCCCN21 (configuration not stated) showed for Glutamate NMDA receptor is 23

# lookup: c1ccc2c(c1)CC1CCCCN1C2 (configuration not stated) on Glutamate NMDA receptor, Ki = 10000

Assay Glutamate NMDA receptor, sample CC12c3ccccc3C(C3CCCC31)N1CCCCC12 (configuration not stated) , Ki read: 46

Sourced from ChEMBL document CHEMBL1128423
